These measurements were taken from patent US20130109682A1.

# test_target: PIM3 (Homo sapiens, UniProt Q86V86)
# measurement_description: KinaseGlo Pim3 ATP depletion assay
# Format: biochemical
pIC50: −log10 of the molar value.
Quick rule: pIC50 of at least 7 means Y, below that means N.

Check the entry `C=C[C@H]1OC(c2ccncc2NC(=O)c2nc(-c3c(F)cccc3F)c(F)cc2N)=C[C@@H](O)[C@@H]1O` : does pIC50 equal or exceed 7?
Y

What about `N#Cc1ccc(F)c(-c2nc(C(=O)Nc3cnccc3[C@H]3C[C@@H](O)[C@H](O)[C@@H](CCl)O3)ccc2F)c1F` ?
Y

What about `O=C(Nc1cnccc1[C@@H]1CCCCO1)c1ccc(F)c(-c2c(F)cccc2F)n1` ?
Y

What about `CC1(C)O[C@@H](c2ccncc2NC(=O)c2ccc(F)c(-c3c(F)cccc3F)n2)C[C@H](O)[C@@H]1O` ?
Y

What about `C[C@H]1O[C@@H](c2ccncc2NC(=O)c2cncc(-c3ccccc3)n2)C[C@@H](O)[C@]1(C)O` ?
N

What about N#CC[C@H]1O[C@@H](c2ccncc2NC(=O)c2nc(-c3c(F)cccc3F)ncc2N)C[C@@H](O)[C@@H]1O [Example 153] ?
Y

What about `Nc1ncc(-c2ccccc2)nc1C(=O)Nc1cnccc1[C@H]1C[C@@H](O)[C@@]2(O)CCCC[C@H]2O1` ?
Y

What about `O=C(Nc1cnccc1[C@@H]1C[C@H](O)[C@]2(O)CCCC[C@@H]2O1)c1c[nH]cc(-c2ccccc2)c1=O` ?
N

What about `N#CC[C@H]1O[C@@H](c2ccncc2NC(=O)c2ccc(F)c(-c3c(F)cccc3F)n2)C[C@@H](O)[C@@H]1O` ?
Y

What about `CC[C@H]1O[C@@H](c2ccncc2NC(=O)c2cccn(-c3ccccc3)c2=O)C[C@@H](O)[C@@H]1O` ?
N

---

Consider the following compounds; for each one, report its pIC50.
# test_target: GSK3β (Homo sapiens)
# Sequence (P49841 whole entry, species assumed): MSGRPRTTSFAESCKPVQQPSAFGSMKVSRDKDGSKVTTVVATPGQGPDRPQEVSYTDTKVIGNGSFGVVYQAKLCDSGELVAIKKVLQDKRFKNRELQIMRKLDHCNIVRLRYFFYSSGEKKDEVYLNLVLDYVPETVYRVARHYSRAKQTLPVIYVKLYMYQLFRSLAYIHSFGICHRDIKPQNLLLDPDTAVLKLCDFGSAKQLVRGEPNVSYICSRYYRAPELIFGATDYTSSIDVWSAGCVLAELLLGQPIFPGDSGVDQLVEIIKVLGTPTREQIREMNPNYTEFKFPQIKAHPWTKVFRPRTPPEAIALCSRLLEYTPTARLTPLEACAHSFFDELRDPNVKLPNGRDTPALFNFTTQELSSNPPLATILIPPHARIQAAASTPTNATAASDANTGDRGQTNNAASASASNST
# measurement_description: GSK3β ATP depletion assay
# Assay type: biochemical
# recorded_conditions: ATP depletion assay; read-out: GSK3b IC50
Value format note: pIC50 is -log10 of concentration (mol/L); just state the number.

Request the reported pIC50 associated with `O=C(Nc1cnccc1[C@@H]1C[C@H](O)[C@@H](O)C2(CC2)O1)c1ccc(F)c(-c2c(F)cccc2F)n1`
5.98

What about `C[C@]1(O)[C@H](O)C[C@H](c2ccncc2NC(=O)c2ccc(F)c(-c3c(F)cccc3F)n2)O[C@@H]1C1CC1` ?
5.92

What about `Nc1ncc(-c2ccccc2)nc1C(=O)Nc1cnccc1[C@@H]1C[C@H](N)[C@]2(O)CCCC[C@@H]2O1` ?
6.06

What about `C[C@]1(O)[C@H](N)C[C@H](c2ccncc2NC(=O)c2nc(-c3c(F)cccc3F)c(F)cc2N)O[C@@H]1C1CC1` ?
5.26

What about CC(C)C1OC(c2ccncc2NC(=O)c2ccc(F)c(-c3c(F)cccc3F)n2)C[C@H](N)[C@H]1O (stereo in doubt) ?
4.97

What about C[C@]1(O)[C@H](N)C[C@H](c2ccncc2NC(=O)c2ccc(F)c(-c3c(F)cccc3F)n2)OC12CC2 [Example 267] ?
5.16

What about `CC(C)(C)[C@H]1O[C@@H](c2ccncc2NC(=O)c2nc(-c3c(F)cccc3F)ncc2N)C[C@@H](N)[C@@H]1O` ?
5.98

What about `CC(C)[C@@H]1C[C@H](N)C[C@H](c2ccncc2NC(=O)c2ccc(F)c(-c3c(F)cc(S(C)(=O)=O)cc3F)n2)O1` ?
5.80

---

# test_target: PIM2 (Homo sapiens)
# Sequence (Q9P1W9 whole entry): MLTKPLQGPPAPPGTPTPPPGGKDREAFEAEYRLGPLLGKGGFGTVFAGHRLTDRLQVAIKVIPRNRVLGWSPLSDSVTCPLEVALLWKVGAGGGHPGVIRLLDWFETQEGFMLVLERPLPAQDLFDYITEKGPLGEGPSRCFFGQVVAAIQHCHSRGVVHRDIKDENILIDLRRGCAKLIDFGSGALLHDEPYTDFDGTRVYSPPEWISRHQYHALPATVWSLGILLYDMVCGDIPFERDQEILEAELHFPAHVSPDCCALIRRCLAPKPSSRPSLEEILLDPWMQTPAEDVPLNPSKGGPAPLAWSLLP
# measurement_description: Pim 2 AlphaScreen assay (high ATP)
# Type: biochemical
# recorded_conditions: read-out: Pim2 IC50
assay_metric: log10(IC50) (log10 of the value in nM)
The common logarithm of IC50 in nM is what is listed.

Request the reported log10(IC50) associated with CCC[C@H]1O[C@@H](c2ccncc2NC(=O)c2nc(-c3ccccc3)cnc2N)C[C@@H](O)[C@@H]1O [Example 340]
3.56

What about CC(C)[C@H]1O[C@@H](c2ccncc2NC(=O)c2ccc(F)c(-c3ccc(S(C)(=O)=O)cc3)n2)C[C@@H](N)[C@@H]1O [Example 306] ?
3.22

What about C[C@]1(O)[C@H](O)C[C@H](c2ccncc2NC(=O)c2nc(-c3c(F)cccc3F)ncc2N)O[C@@H]1C1CC1 [Example 246] ?
2.91

What about CC(C)[C@H]1C[C@@H](N)C[C@@H](c2ccncc2NC(=O)c2ccc(F)c(-c3c(F)cc(S(C)(=O)=O)cc3F)n2)O1 [Example 303] ?
3.10

What about CC[C@@H]1O[C@H](c2ccncc2NC(=O)c2ccc(F)c(-c3c(F)cccc3F)n2)C[C@H](N)[C@H]1O [Example 332] ?
2.49

---

# test_target: GSK3β (Homo sapiens)
# measurement_description: GSK3β ATP depletion assay
# Format: biochemical
# recorded_conditions: read-out: GSK3b IC50
assay_metric: pIC50
Value format note: pIC50 is -log10 of concentration (mol/L); just state the number.

Request the reported pIC50 associated with `C[C@H]1O[C@@H](c2ccncc2NC(=O)c2nc(-c3c(F)cccc3F)c(F)cc2N)C[C@@H](O)[C@]1(C)O`
6.56

What about `Nc1cnc(-c2c(F)cccc2F)nc1C(=O)Nc1cnccc1[C@H]1C[C@@H](O)[C@@]2(O)CCCC[C@H]2O1` ?
7.68

What about `CC[C@]1(O)[C@H](O)C[C@H](c2ccncc2NC(=O)c2nc(-c3ccncc3F)ccc2N)O[C@@H]1C` ?
8.10

---

# test_target: PIM3 (Homo sapiens)
# measurement_description: Pim 3 AlphaScreen assay (high ATP)
# Assay type: biochemical
# recorded_conditions: read-out: Pim3 IC50
assay_metric: IC50

Request the reported IC50 associated with COCCOc1cc(F)c(-c2nc(C(=O)Nc3cnccc3[C@@H]3C[C@@H](N)CC(C)(C)O3)ccc2F)c(F)c1 [Example 315]
1.5 nM

What about O=C(Nc1cc(=O)[nH]cc1[C@H]1C[C@@H](O)[C@H](O)[C@@H](CO)O1)c1ccc(F)c(-c2c(F)cccc2F)n1 [Example 226] ?
23500 nM

What about N[C@H]1C[C@@H](c2ccncc2NC(=O)c2ccc(F)c(-c3c(F)cccc3F)n2)O[C@H]2CCC[C@H]21 [Example 223] ?
201 nM

---

# Tested on: KMS11 (human myeloma cell line)
# measurement_description: Cell proliferation assay (CellTiter-Glo), KMS11
# Type: cell-based
# recorded_conditions: Homo sapiens, KMS-11; KMS11 cells, cell proliferation; read-out: KMS11-Luc EC50
assay_metric: pEC50
Value format note: pEC50 is -log10 of concentration (mol/L); just state the number.

Request the reported pEC50 associated with `C[C@@]1(O)[C@@H](N)C[C@@H](c2ccncc2NC(=O)c2nc(-c3ccccc3)cnc2N)O[C@H]1C1CC1`
5.61

What about `Cc1cc(F)c(-c2nc(C(=O)Nc3cnccc3[C@H]3C[C@@H](N)[C@H](O)[C@@H](C4CC4)O3)ccc2F)c(F)c1` ?
6.64

What about `C[C@H]1O[C@@H](c2ccncc2NC(=O)c2ccc(F)c(-c3c(F)cc(S(C)(=O)=O)cc3F)n2)C[C@@H](N)[C@]1(C)O` ?
5.93

What about `CC(C)(C)[C@H]1O[C@@H](c2ccncc2NC(=O)c2ccc(F)c(-c3c(F)cc(S(C)(=O)=O)cc3F)n2)C[C@@H](N)[C@@H]1O` ?
6.70

What about `C[C@@H]1O[C@H](c2ccncc2NC(=O)c2ccc(F)c(-c3c(F)cccc3F)n2)C[C@H](N)[C@@]1(C)O` ?
5.21

What about `COCCOc1cc(F)c(-c2nc(C(=O)Nc3cnccc3[C@@H]3C[C@@H](N)CC(C)(C)O3)ccc2F)c(F)c1` ?
6.70

What about `N[C@H]1C[C@@H](c2ccncc2NC(=O)c2csc(-c3c(F)cccc3F)n2)O[C@H]2CCC[C@H]21` ?
5.52

What about `C[C@H]1O[C@@H](c2ccncc2NC(=O)c2ccc(F)c(-c3c(F)cc(C(=O)N(C)C)cc3F)n2)C[C@@H](N)[C@]1(C)O` ?
6.12

What about `CC(C)[C@H]1O[C@@H](c2ccncc2NC(=O)c2ccc(F)c(-c3ccc(C#N)cc3F)n2)C[C@@H](N)[C@@H]1O` ?
5.61

---

Consider the following molecules; for each one, report its IC50.
# test_target: PIM1 (Homo sapiens, UniProt P11309)
# Sequence (P11309 whole entry): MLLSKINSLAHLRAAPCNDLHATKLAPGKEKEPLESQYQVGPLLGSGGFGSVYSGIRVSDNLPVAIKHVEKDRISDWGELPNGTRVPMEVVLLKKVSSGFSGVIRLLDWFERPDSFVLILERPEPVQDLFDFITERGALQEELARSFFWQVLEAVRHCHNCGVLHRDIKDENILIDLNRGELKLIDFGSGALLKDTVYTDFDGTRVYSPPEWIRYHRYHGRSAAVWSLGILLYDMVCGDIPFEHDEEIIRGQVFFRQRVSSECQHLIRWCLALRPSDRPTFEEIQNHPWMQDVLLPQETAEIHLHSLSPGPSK
# measurement_description: KinaseGlo Pim1 ATP depletion assay
# Format: biochemical
# output: bare number, implied unit nM

Request the reported IC50 associated with `NC(=O)[C@H]1O[C@@H](c2ccncc2NC(=O)c2ccc(F)c(-c3c(F)cccc3F)n2)C[C@@H](O)[C@@H]1O`
181

What about `CC[C@H]1O[C@@H](c2ccncc2NC(=O)c2nc(-c3c(F)cccc3F)ncc2N)C[C@@H](O)[C@@H]1O` ?
3

What about `O=C(Nc1cnccc1C1=C[C@@H](O)[C@H](O)[C@@H](CCl)O1)c1ccc(F)c(-c2c(F)cccc2F)n1` ?
1

What about `C[C@H]1O[C@@H](c2ccncc2NC(=O)c2cccc(-c3ccccc3F)n2)C[C@@H](O)[C@]1(C)O` ?
1
